- ASSAYED_TARGET: Human neutrophil elastase (Homo sapiens (Human), UniProt P08246)
- Sequence (P08246 30-247): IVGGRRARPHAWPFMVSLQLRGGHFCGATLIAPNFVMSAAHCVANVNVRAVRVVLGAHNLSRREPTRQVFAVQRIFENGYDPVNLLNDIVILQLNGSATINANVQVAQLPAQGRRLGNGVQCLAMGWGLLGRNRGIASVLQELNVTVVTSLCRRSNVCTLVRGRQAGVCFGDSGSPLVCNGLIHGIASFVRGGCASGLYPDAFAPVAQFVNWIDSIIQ
- EXPERIMENT_DESCRIPTION: Human Neutrophil Elastase Assay
- CONDITION_DETAILS: substrate MeOSuc-Ala-Ala-Pro-Val-AMC 250 μM, pH 7.5
pIC50 overview
// pIC50 is dimensionless: -log10 of concentration (M)

Task: Fill in pIC50 for record CN1C(=O)N(c2cccc(C(F)(F)F)c2)C2=C(C(=O)CC2)C1c1ccc(C#N)cc1C(=O)N1CCNCC1 (stereo not shown)
Output: 8.12

---

- ASSAYED_TARGET: Human neutrophil elastase (Homo sapiens (Human), UniProt P08246)
- EXPERIMENT_DESCRIPTION: Human Neutrophil Elastase Assay
- CONDITION_DETAILS: substrate MeOSuc-Ala-Ala-Pro-Val-AMC 250 μM, pH 7.5
Recorded pIC50 values for a group of compounds are listed next.
pIC50 is defined as minus the log10 of a concentration measured in mol/L.

Consider the following illustrative entries.
COMPOUND	pIC50
CN1C(=O)N(c2cccc(C(F)(F)F)c2)C2=C(C(=O)CCC2)C1c1ccc(C#N)cc1C(=O)N1CCOCC1 (stereo not shown)	8.54
CC(=O)N(C)[C@H]1CCN(C(=O)c2cc(C#N)ccc2C2C3=C(CCC3=O)N(c3cccc(C(F)(F)F)c3)C(=O)N2C)C1 (stereo partly shown)	8.64
CN1C(=O)N(c2cccc(C(F)(F)F)c2)C2=C(C(=O)CC2)C1c1ccc(C#N)cc1C(=O)NC(C)(C)C#N (stereo not shown)	8.47

Task: Tell me measured pIC50 for CN(Cc1nncn1C)C(=O)c1cc(C#N)ccc1C1C2=C(CCC2=O)N(c2cccc(C(F)(F)F)c2)C(=O)N1C (stereo not shown) please.
Output: 8.85

Task: Return the recorded pIC50 value; entry: CN(CCN1CCOCC1)C(=O)c1cc(C#N)ccc1C1C2=C(CCC2=O)N(c2cccc(C(F)(F)F)c2)C(=O)N1C (stereo not shown)
Output: 8.80

Task: // Input: CN1C(=O)N(c2cccc(C(F)(F)F)c2)C2=C(C(=O)CC2)C1c1ccc(C#N)cc1C(=O)N1C[C@H]2C[C@@H]1CN2 (stereo partly shown) . Output its pIC50 only.
Output: 8.14

Task: Look up and report measured pIC50 for this entry: CN1C(=O)N(c2cccc(C(F)(F)F)c2)C2=C(C(=O)CC2)C1c1ccc(C#N)cc1C(=O)NCC#N (stereo not shown)
Output: 8.51

---

- ASSAYED_TARGET: Human neutrophil elastase (Homo sapiens (Human))
- EXPERIMENT_DESCRIPTION: Human Neutrophil Elastase Assay
- CONDITION_DETAILS: substrate MeOSuc-Ala-Ala-Pro-Val-AMC 250 μM, pH 7.5
OBSERVATION_TYPE: IC50 (nM)
Expressed in nM, but write only the number.

COMPOUND	ASSAYED_TARGET	IC50, nM
CN1C(=O)N(c2cccc(C(F)(F)F)c2)C2=C(C(=O)CC2)C1c1ccc(C#N)cc1C(=O)N1C[C@H]2C[C@@H]1C[N+]2(C)C (stereo partly shown)	Human neutrophil elastase (Homo sapiens (Human))	7
CN1C(=O)N(c2cccc(C(F)(F)F)c2)C2=C(C(=O)CC2)C1c1ccc(C#N)cc1C(=O)NCc1ccon1 (stereo not shown)	Human neutrophil elastase (Homo sapiens (Human))	2

Task: Return IC50 for the following compound: `CN1C(=O)N(c2cccc(C(F)(F)F)c2)C2=C(C(=O)CC2)[C@H]1c1ccc(C#N)cc1C(=O)N1CCOCC1`
Output: 2.9

Task: Give IC50 for the following compound: CN1C(=O)N(c2cccc(C(F)(F)F)c2)C2=C(C(=O)CC2)C1c1ccc(C#N)cc1C(=O)N1CCc2nocc2C1 (stereo not shown)
Output: 9.8
